# test-target: T1, FimH lectin domain (residues Phe1-Thr158) (Escherichia coli, UniProt P08191 22-179)
# T1 construct: FimH type-1 fimbrial adhesin of Escherichia coli, lectin domain, residues Phe1-Thr158; No tag is mentioned; also called FimH adhesin; source: E. coli C43(DE3), pET24a vector, purified (sulfopropyl fast flow cation exchange chromatography)
# T1 sequence (P08191 22-179): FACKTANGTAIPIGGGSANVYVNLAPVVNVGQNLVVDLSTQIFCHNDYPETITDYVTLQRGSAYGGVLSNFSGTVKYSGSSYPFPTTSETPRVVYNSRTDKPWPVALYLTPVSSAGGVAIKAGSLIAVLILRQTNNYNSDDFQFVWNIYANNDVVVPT
# procedure-text: SPR; single-cycle kinetics on BIAcore T200; ω1-glycoprotein immobilised on a CM5 chip via primary amino groups (EDC/NHS); FimH as analyte at 14.4, 7.17, 3.60, 1.80, 0.9 μM; 20 mM Hepes, 150 mM NaCl, 0.005% Tween; 30 μl/min; 298 K; fit to the Langmuir 1:1 model
# measurement-parameters: both partners purified
recorded-endpoint: koff (s⁻¹)
// return numeric value only (unit: s⁻¹, not printed)

Example entries begin here.
binder	recorded-endpoint	output-unit	observed
omega-1 (ω1) glycoprotein carrying Man3Gn2 (natural protein, N-glycans Man3Gn2 (oligomannose-3, paucimannosidic); sites not stated) QNRWDYYVFSVTWPPTYCESIQCRLPRGLRDFTIHGLWPTIFPNRQPNCTGSLRFDIRRLQGIRNELDLMWPHLKNYRESPSFWKHEFEKHGLCAVEDPQVFNQYGYFKFGIKLMQKLNLLKTLMKYKISPHDSRQYDTINLMNVLEREFGYNGSANCIRKPGRRGMYHLEEVHVCLNRKHEFMNCPFLGNCPKKFIFPPFQ	koff	s⁻¹	0.00013
omega-1 (ω1) glycoprotein carrying Man3Gn2F1[3] (natural protein, N-glycans Man3Gn2F1[3] (α1,3 core-fucosylated oligomannose-3); sites not stated) QNRWDYYVFSVTWPPTYCESIQCRLPRGLRDFTIHGLWPTIFPNRQPNCTGSLRFDIRRLQGIRNELDLMWPHLKNYRESPSFWKHEFEKHGLCAVEDPQVFNQYGYFKFGIKLMQKLNLLKTLMKYKISPHDSRQYDTINLMNVLEREFGYNGSANCIRKPGRRGMYHLEEVHVCLNRKHEFMNCPFLGNCPKKFIFPPFQ	koff	s⁻¹	6.72e-05

Write down koff measured for item omega-1 (ω1) glycoprotein carrying Man3Gn2F1[6] (natural protein, N-glycans Man3Gn2F1[6] (α1,6 core-fucosylated oligomannose-3); sites not stated) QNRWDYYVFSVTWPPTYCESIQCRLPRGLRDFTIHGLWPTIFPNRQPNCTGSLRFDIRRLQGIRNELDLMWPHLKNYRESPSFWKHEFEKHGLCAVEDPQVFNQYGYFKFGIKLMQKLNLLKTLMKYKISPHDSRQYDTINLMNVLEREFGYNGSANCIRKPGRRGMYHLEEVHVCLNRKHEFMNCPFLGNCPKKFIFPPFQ
8.89e-05
